Catalogue of compounds with associated isoTOP-ABPP ratio, lysine Q9NVS9_K100
molecular target: PNPO Pyridoxine-5-phosphate oxidase (Homo sapiens, UniProt Q9NVS9); construct: endogenous in cells; host or cells: MDA-MB-231 (soluble fraction of lysate); assay: competitive isoTOP-ABPP; type: binding; details: 50 uM_231_sol_in vitro
Sequence (Q9NVS9 whole entry): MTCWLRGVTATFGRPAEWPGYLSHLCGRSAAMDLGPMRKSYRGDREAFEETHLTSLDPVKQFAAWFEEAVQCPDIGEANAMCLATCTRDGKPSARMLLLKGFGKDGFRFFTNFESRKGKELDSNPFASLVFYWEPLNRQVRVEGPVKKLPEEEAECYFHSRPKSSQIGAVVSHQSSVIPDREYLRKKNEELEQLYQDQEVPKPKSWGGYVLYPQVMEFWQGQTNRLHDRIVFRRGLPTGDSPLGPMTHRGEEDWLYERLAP

Field: example entries. Status: answers known.
>  <Compound>
N#Cc1ccc(C(=O)Oc2ccc([N+](=O)[O-])cc2[N+](=O)[O-])cc1 [fragment 44, 2,4-Dinitrophenyl 4-cyanobenzoate]

>  <Test System>
PNPO Pyridoxine-5-phosphate oxidase (Homo sapiens, UniProt Q9NVS9)

>  <isoTOP-ABPP ratio, lysine Q9NVS9_K100>
0.9

$$$$
>  <Compound>
O=C(CCc1ccc2c(c1)OCO2)Oc1ccc([N+](=O)[O-])cc1[N+](=O)[O-]

>  <Test System>
PNPO Pyridoxine-5-phosphate oxidase (Homo sapiens, UniProt Q9NVS9)

>  <isoTOP-ABPP ratio, lysine Q9NVS9_K100>
1.0

$$$$
>  <Compound>
O=C(Oc1c(F)c(F)cc(F)c1F)c1cc(C(F)(F)F)cc(C(F)(F)F)c1

>  <Test System>
PNPO Pyridoxine-5-phosphate oxidase (Homo sapiens, UniProt Q9NVS9)

>  <isoTOP-ABPP ratio, lysine Q9NVS9_K100>
0.9

$$$$
>  <Compound>
O=C(ON1C(=O)CCC1=O)c1cc(C(F)(F)F)cc(C(F)(F)F)c1

>  <Test System>
PNPO Pyridoxine-5-phosphate oxidase (Homo sapiens, UniProt Q9NVS9)

>  <isoTOP-ABPP ratio, lysine Q9NVS9_K100>
1.0

$$$$

Lookup: Quick check: isoTOP-ABPP ratio, lysine Q9NVS9_K100 of NC(=O)c1cc(C(F)(F)F)cc(C(F)(F)F)c1 [fragment 51, reference compound] ?
Found: 0.9

Lookup: How about this compound: O=C(Oc1c(F)c(F)c(C(F)(F)F)c(F)c1F)c1cc(C(F)(F)F)cc(C(F)(F)F)c1
Found: 0.9
